Each recorded value in this set is attributed to patent US4847256A.

System: brain-specific receptors (benzodiazepine binding)
Experiment: Inhibition of the binding of 3H-benzodiazepine to brain-specific receptors of rats
Set-up: species or system rat (Wistar)
Conditions: 3H-diazepam (1.5 nM) or 3H-flunitrazepam (1.0 nM), rat cortex P2 fraction, pH 7.4, 30 minutes in ice; 12% or more = active; test concentration not given
Hi there, I'd appreciate the recorded % Inhibition of 3H-benzodiazepine binding for every entry that follows.
Give bare numbers, in %.

These solved cases illustrate the format of a correct answer.
CN1CC=C(c2cccc(C(F)(F)F)c2)n2ncc(C#N)c21    12
O=C(c1ccccc1)c1cnn2c1NCC=C2c1cccc(C(F)(F)F)c1    76
FC(F)(F)c1cccc(C2=CCNc3ccnn32)c1    48
FC(F)(F)c1cccc(C2=CCNc3c(Cl)cnn32)c1    63

Below is a list of molecules. For each, state its recorded % Inhibition of 3H-benzodiazepine binding.
1. N#Cc1cnn2c1NCC=C2c1ccc(Cl)c(Cl)c1
2. NC(=O)c1cnn2c1NCC=C2c1cccc(F)c1
3. N#Cc1cnn2c1NCC=C2c1ccccc1
4. CCOC(=O)c1cnn2c1NCC=C2c1ccccc1
5. O=C(c1ccccc1)c1cnn2c1NCCC2c1ccncc1 (stereo not drawn)
6. N#Cc1cnn2c1NCC=C2c1cccc(C(F)(F)F)c1

12
39
20
54
22
15

For each listed entry, give its % Inhibition of 3H-benzodiazepine binding.
1. CCOC(=O)c1cnn2c1NCC=C2c1cccc(C(F)(F)F)c1
2. CC(C)(C)C(=O)c1cnn2c1NCCC2

[90, 28]

----------
Tested on: rats (stress induced immobility)
Test: Stress Induced Immobility Test
Assay type: in vivo, rat
Conditions: 25 mg/kg intraperitoneally, 15 minutes at 44.5° C.; control 200 seconds
observed.property: Mean Duration (Seconds) of immobility

CC1CC(c2cccc(Cl)c2)n2ncc(C#N)c2N1 (stereo not shown)    75.4 s
CC1=C(c2cccc(C(F)(F)F)c2)n2ncc(C#N)c2NC1    55.0 s
CC1CC(c2ccc(Cl)cc2)n2ncc(C#N)c2N1 (stereo not shown)    4.7 s

Need Mean Duration (Seconds) of immobility of CC1=C(c2cccc(Cl)c2)n2ncc(C#N)c2NC1 , thanks.
66.7 s
